SYSTEM_UNDER_TEST: SAE1 (Homo sapiens (Human), UniProt Q9UBE0+Q9UBT2)
Sequence (Q9UBE0 whole entry): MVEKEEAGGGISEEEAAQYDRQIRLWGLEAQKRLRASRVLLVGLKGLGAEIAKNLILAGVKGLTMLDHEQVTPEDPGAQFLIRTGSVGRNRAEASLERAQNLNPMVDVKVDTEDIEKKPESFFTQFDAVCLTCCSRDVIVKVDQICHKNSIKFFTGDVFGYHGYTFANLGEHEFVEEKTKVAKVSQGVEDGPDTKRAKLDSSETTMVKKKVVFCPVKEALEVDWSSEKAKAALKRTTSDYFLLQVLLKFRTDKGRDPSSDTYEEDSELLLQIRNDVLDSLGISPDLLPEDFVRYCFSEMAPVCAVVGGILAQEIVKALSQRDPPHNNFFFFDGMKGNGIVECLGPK
Sequence (Q9UBT2 whole entry): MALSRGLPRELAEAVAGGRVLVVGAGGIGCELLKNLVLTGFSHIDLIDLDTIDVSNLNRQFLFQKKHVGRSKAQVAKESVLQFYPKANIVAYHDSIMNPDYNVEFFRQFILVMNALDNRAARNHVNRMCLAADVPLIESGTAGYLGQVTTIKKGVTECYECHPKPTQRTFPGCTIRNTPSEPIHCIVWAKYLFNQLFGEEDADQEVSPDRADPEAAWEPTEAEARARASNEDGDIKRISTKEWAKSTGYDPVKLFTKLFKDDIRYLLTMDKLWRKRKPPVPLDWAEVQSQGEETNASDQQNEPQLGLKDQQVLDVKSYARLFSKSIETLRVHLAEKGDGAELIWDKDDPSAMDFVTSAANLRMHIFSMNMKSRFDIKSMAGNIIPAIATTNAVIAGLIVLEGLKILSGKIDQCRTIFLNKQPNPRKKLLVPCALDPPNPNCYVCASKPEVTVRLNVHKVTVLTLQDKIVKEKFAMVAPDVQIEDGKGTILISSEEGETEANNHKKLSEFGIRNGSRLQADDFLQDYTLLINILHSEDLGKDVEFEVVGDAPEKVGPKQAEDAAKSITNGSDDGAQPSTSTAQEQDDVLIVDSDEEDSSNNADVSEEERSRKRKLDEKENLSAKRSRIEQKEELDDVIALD
EXPERIMENT_SUMMARY: SAE High Throughput Biochemical Assay (HTRF), 15 min preincubation
ASSAY_CONTEXT: read-out: 15 min preincubation HTRF IC50 (μM) Ave, SAE1 12.5 nM, ATP 100 μM
As shown below, each of these compounds has a reported IC50 value.
Could you give me the number in µM? Just the number is fine.

- COMPOUND: "CCn1cc(-c2ccccc2[C@@H]2CN(C(=O)C#CC3(N)CC3)Cc3sc(C#N)cc32)c(C(F)(F)F)n1"
  IC50 (µM): 4.13
- COMPOUND: "CCn1cc(-c2ccccc2[C@@H]2CN(C(=O)C#CC3CNC3)Cc3sc(C#N)cc32)c(C(F)(F)F)n1"
  IC50 (µM): 0.62
- COMPOUND: "CN(C)C/C=C/C(=O)N1Cc2sc(C#N)cc2[C@H](c2ccccc2-c2cn(CCCC(=O)O)nc2C(F)(F)F)C1"
  IC50 (µM): 12.5
- COMPOUND: "CN(C)C/C=C/C(=O)N1Cc2sc(C#N)cc2[C@H](c2ccccc2-c2cn(CC(=O)O)nc2C(F)(F)F)C1"
  IC50 (µM): 21.1
- COMPOUND: "CCn1cc(-c2ccccc2[C@@H]2CN(C(=O)/C=C/CN3CCC[C@H]3C(=O)O)Cc3sc(C#N)cc32)c(C(F)(F)F)n1"
  IC50 (µM): 7.43
- COMPOUND: "CCn1cc(-c2c(F)cccc2[C@@H]2CN(C(=O)/C=C/[C@@H](C)NC)Cc3sc(C#N)cc32)c(C(F)(F)F)n1"
  IC50 (µM): 2.7

Then this compound:
Exercise: Can you share its IC50? I mean this compound: CCn1cc(-c2ccc(F)cc2C2CN(C(=O)/C=C/CN(C)C)Cc3sc(C#N)cc32)c(C(F)(F)F)n1 (stereo not shown)
Solution: 5.29

----------
As shown below, each of these compounds has a reported IC50 value.
SYSTEM_UNDER_TEST: SAE1 (Homo sapiens (Human), UniProt Q9UBE0+Q9UBT2)
EXPERIMENT_SUMMARY: SAE High Throughput Biochemical Assay (HTRF), 15 min preincubation
ASSAY_CONTEXT: read-out: 15 min preincubation HTRF IC50 (μM) Ave, SAE1 12.5 nM, ATP 100 μM
Could you give me the number in µM? Just the number is fine.

// solved cases for IC50 follow
- COMPOUND: "CCn1cc(-c2cc(NC(=O)NC)ccc2C2CN(C(=O)/C=C/CN(C)C)Cc3sc(C#N)cc32)c(C(F)(F)F)n1 (centres unmarked)"
  SYSTEM_UNDER_TEST: "SAE1 (Homo sapiens (Human), UniProt Q9UBE0+Q9UBT2)"
  UNIT_SYMBOL: "µM"
  IC50: 11.3
- COMPOUND: "CCn1cc(-c2ccccc2[C@@H]2CN(C(=O)/C=C/CN(C)C)Cc3sc(C#N)c(C)c32)c(C(F)(F)F)n1"
  SYSTEM_UNDER_TEST: "SAE1 (Homo sapiens (Human), UniProt Q9UBE0+Q9UBT2)"
  UNIT_SYMBOL: "µM"
  IC50: 1.12
- COMPOUND: "CCn1cc(-c2ccccc2[C@@H]2CN(C(=O)/C=C/[C@@H]3CC4(CC4)CN3)Cc3sc(C#N)cc32)c(C(F)(F)F)n1"
  SYSTEM_UNDER_TEST: "SAE1 (Homo sapiens (Human), UniProt Q9UBE0+Q9UBT2)"
  UNIT_SYMBOL: "µM"
  IC50: 1.49
- COMPOUND: "CCn1cc(-c2ccccc2[C@@H]2CN(C(=O)/C=C/[C@@H](N)CO)Cc3sc(C#N)cc32)c(C(F)(F)F)n1"
  SYSTEM_UNDER_TEST: "SAE1 (Homo sapiens (Human), UniProt Q9UBE0+Q9UBT2)"
  UNIT_SYMBOL: "µM"
  IC50: 2.84

Exercise: Can you share its IC50? I mean this compound: `CCn1cc(-c2ccccc2[C@@H]2CN(C(=O)/C=C/C3(N)CC3)Cc3sc(C#N)cc32)c(C(F)(F)F)n1`
Solution: 26.5

Exercise: Likewise for `CCn1cc(-c2ccccc2[C@@H]2CN(C(=O)/C=C/CN(C)C)Cc3sc(C#N)cc32)c(C(C)(F)F)n1` ?
Solution: 13.4

Exercise: Likewise for `CN[C@@H](C)/C=C/C(=O)N1Cc2sc(C#N)c(C)c2[C@H](c2cccc(F)c2-c2cn(C)nc2C(F)(F)F)C1` ?
Solution: 1.01

----------
EXPERIMENT_SUMMARY: Plasma protein binding, equilibrium dialysis, monkey plasma
Format: in vitro ADME
ASSAY_CONTEXT: 5 hours at 37° C., read-out: PPB % bound Monkey (converted)
As shown below, each of these compounds has a reported fraction unbound at 5 h, 1 μM value.
Reply briefly: the number, and no unit.

// solved cases for fraction unbound at 5 h, 1 μM follow
- COMPOUND: "CCn1cc(-c2c(F)cccc2[C@@H]2CN(C(=O)/C=C/CNC)Cc3sc(C#N)cc32)c(C(F)(F)F)n1 [Example 50]"
  OBSERVED_VALUE: 0.064
- COMPOUND: "CCn1cc(-c2c(F)cccc2[C@@H]2CN(C(=O)/C=C/CN(C)C)Cc3sc(C#N)c(C)c32)c(C(F)(F)F)n1 [Example 46]"
  OBSERVED_VALUE: 0.047

Then this compound:
Exercise: Can you share its fraction unbound at 5 h, 1 μM? I mean this compound: C=CC(=O)N1Cc2sc(C#N)c(C)c2[C@H](c2cccc(F)c2-c2cn(CC)nc2C(F)(F)F)C1 [Compound 222]
Solution: 0.009

----------
SYSTEM_UNDER_TEST: SAE1 (Homo sapiens (Human), UniProt Q9UBE0+Q9UBT2)
EXPERIMENT_SUMMARY: SAE High Throughput Biochemical Assay (HTRF), 15 min preincubation
ASSAY_CONTEXT: read-out: 15 min preincubation HTRF IC50 (μM) Ave, SAE1 12.5 nM, ATP 100 μM
Ranges used to classify IC50: category 1 (below 0.8 µM), category 2 (0.8 µM to below 3 µM), category 3 (3 µM or more)

Observe how each entry below is paired with its result.
- MOLECULE: "CCn1cc(-c2ccccc2[C@@H]2CN(C(=O)/C=C/CF)Cc3sc(C#N)cc32)c(C(F)(F)F)n1 [Example 20]"
  SYSTEM_UNDER_TEST: "SAE1 (Homo sapiens (Human), UniProt Q9UBE0+Q9UBT2)"
  DISCRETE_LABEL: "category 1"
- MOLECULE: "CN(C)C/C=C/C(=O)N1Cc2sc(C#N)cc2[C@H](c2ccccc2-c2cn(CC(N)=O)nc2C(F)(F)F)C1 [Example 162]"
  SYSTEM_UNDER_TEST: "SAE1 (Homo sapiens (Human), UniProt Q9UBE0+Q9UBT2)"
  DISCRETE_LABEL: "category 3"
- MOLECULE: "CC(C#N)n1cc(-c2ccccc2[C@@H]2CN(C(=O)/C=C/CN(C)C)Cc3sc(C#N)cc32)c(C(F)(F)F)n1 (some centres unmarked) [Example 165]"
  SYSTEM_UNDER_TEST: "SAE1 (Homo sapiens (Human), UniProt Q9UBE0+Q9UBT2)"
  DISCRETE_LABEL: "category 3"
- MOLECULE: "CCOC(=O)Cn1cc(-c2ccccc2[C@@H]2CN(C(=O)/C=C/CN(C)C)Cc3sc(C#N)cc32)c(C(F)(F)F)n1 [Example 169]"
  SYSTEM_UNDER_TEST: "SAE1 (Homo sapiens (Human), UniProt Q9UBE0+Q9UBT2)"
  DISCRETE_LABEL: "category 3"
- MOLECULE: "CCn1cc(-c2c(F)cccc2[C@@H]2CN(C(=O)/C=C/[C@@H]3CCCN3)Cc3sc(C#N)cc32)c(C(F)(F)F)n1 [Example 118]"
  SYSTEM_UNDER_TEST: "SAE1 (Homo sapiens (Human), UniProt Q9UBE0+Q9UBT2)"
  DISCRETE_LABEL: "category 1"

Exercise: Which category fits this record: CNC/C=C/C(=O)N1Cc2sc(C#N)cc2[C@H](c2cccc(F)c2-c2cn(C)nc2C(F)(F)F)C1 [Example 129]
Solution: category 1

Exercise: Likewise for CCn1cc(-c2cccc(O)c2C2CN(C(=O)/C=C/CN(C)C)Cc3sc(C#N)cc32)c(C(F)(F)F)n1 (centres unmarked) [Example 204] ?
Solution: category 3

Exercise: Likewise for CCn1cc(-c2ccccc2[C@@H]2CN(C(=O)/C=C/[C@@H]3C[C@H](C)CN3)Cc3sc(C#N)cc32)c(C(F)(F)F)n1 [Example 80] ?
Solution: category 2

Exercise: Likewise for CCn1cc(-c2c(F)cccc2[C@@H]2CN(C(=O)/C=C/[C@@H]3C[C@H](OC)CN3)Cc3sc(C#N)cc32)c(C(F)(F)F)n1 [Example 119] ?
Solution: category 1

Exercise: Likewise for CCn1cc(-c2c(C)cccc2[C@@H]2CN(C(=O)/C=C/CN(C)C)Cc3sc(C#N)cc32)c(C(F)(F)F)n1 [Compound 242] ?
Solution: category 2

Exercise: Likewise for CCn1cc(-c2cc(O)ccc2C2CN(C(=O)/C=C/CN(C)C)Cc3sc(C#N)cc32)c(C(F)(F)F)n1 (centres unmarked) [Example 203] ?
Solution: category 3

Exercise: Likewise for CCn1cc(-c2ccccc2[C@@H]2CN(C(=O)/C=C/[C@H](C)N)Cc3sc(C#N)cc32)c(C(F)(F)F)n1 [Example 49] ?
Solution: category 3

Values were extracted from patent US20240360148A1.
